- Tested on: HCC-2998 colon
- protocol.description: NCI-60 one-dose screen, 48 h (100 = growth as untreated, 0 = no growth, -100 = all killed)
- measurement.setup: 10 µM unless noted
About 83,000 compounds went through this panel and 20% of them were active in at least one assay; those are over-represented in the sample as a whole.
recorded.metric: growth (%)
Respond with the bare value in %.

Given the molecule "O=c1[nH]nc(-c2ccc(Br)cc2)c2sc(NC(=S)Nc3ccc(Cl)cc3)nc12" , what is its reported growth? 97.6

# get_value(readout='growth', item= "COc1ccc2oc(=O)cc(-c3nc4ccc(N)cc4[nH]3)c2c1" ) 97.9

Given the entry NC(=O)c1ccc(C2C3=C(CCCC3=O)OC3=C2C(=O)c2ccccc2C3=O)cc1 (centres undefined) , report its measured growth. 77.7

Query: growth; subject: "Nc1c(C(=O)Nc2ccccn2)sc2nc3c(cc12)CCCCCC3" 48.9

Consider the molecule "N#Cc1ccc(N2Cc3cc(Cl)ccc3OC3=C2C(=O)N(Cc2ccccc2)C3=O)cc1" and give its measured growth. 40.4

Which measured growth value corresponds to "O=C(Nc1nccs1)c1noc2ccccc12" ? 105

Bench note: what growth did "COc1ccc(-n2nc(C(=O)NCC(=O)O)nc2-c2ccccc2)cc1" show? 118

Value lookup for growth; key = "Cc1c(Cl)cccc1NC(=O)c1sc2nc3c(cc2c1N)CN(Cc1ccccc1)CC3" 82.9

Would you kindly share the measured growth for "C#CC[C@@H]1C[C@]2(C)[C@H]3CC[C@@H]4[C@H]5[C@H](C(=C)C)CC[C@]5(C(=O)O)CC[C@@]4(C)[C@]3(C)CC[C@H]2C(C)(C)[C@H]1O" ? 64.7

----------
- Test system: SR leukemia
- protocol.description: NCI-60 one-dose screen, 48 h
- measurement.setup: 10 µM unless noted
About 83,000 compounds went through this panel and 20% of them were active in at least one assay; those are over-represented in the sample as a whole. The source made the active and inactive calls. The calls were made as follows: active = growth percent below 10; inactive = the rest.
Can you answer with just one of these options? active, inactive

Please indicate how the test categorized COC(=O)c1cc2c3c(cc(O)c2[nH]1)N(C(=O)C1Cc2cc(OC)c(OC)c(OC)c2N1)CC3CCl (centres undefined) . active

How was "CCO/C=N/S(=O)(=O)c1cc2c(cc1Cl)NC=NS2(=O)=O" classified in this test? inactive

# fetch the recorded call for "[2H]c1nc(Nc2ncc3cc(C(=O)N(C)C)n(C4CCCC4)c3n2)c([2H])c([2H])c1N1C([2H])([2H])C([2H])([2H])NC([2H])([2H])C1([2H])[2H]" here inactive

Which outcome did this test record for the compound CCOC(=O)C1=C(C)n2nc(CC#N)c(C#N)c2NC1c1ccc(Cl)cc1 (centres undefined) ? inactive

# outcome recorded in this test, key = "Cc1nccc2c3ccc(OCc4cn(-c5ccc(Cl)cc5)nn4)cc3n(CC(C)C)c12" active

For this compound, state the assay outcome: "Cn1cc(-c2ccc3c(c2)ncn3-c2ccc(CC(=O)Nc3cc(C(C)(C)C)on3)cc2)cn1" inactive

Entry "COc1ccccc1N1CCN(CCCOc2ccc(C(=O)/C=C3/C(=O)Nc4ccccc43)cc2)CC1" : call = ? inactive

Which outcome did this test record for the compound "COc1ccc(-c2cn(-c3ccc(Cl)cc3)c(=S)[nH]2)cc1OC" ? inactive

Lab log entry: "CCOC(=O)/C=C1\SC(=Nc2ccc(C#N)cc2)N(CCN2C(=O)/C(=C/C(=O)OCC)SC2=Nc2ccc(C#N)cc2)C1=O" — outcome as called in the assay? active

Write down the call the test reported for this compound. Item: "Oc1ccccc1-c1nc2c3ccccc3c3ccccc3c2o1" inactive

For "CCCCCOC(=O)c1ccccc1O" , which call appears in the assay record? inactive

Which outcome was assigned to "CC(=O)[C@@H]1CC[C@]2(C(=O)O)CC[C@]3(C)[C@H](CC[C@@H]4[C@@]5(C)Cc6c([nH]c7ccccc67)C(C)(C)[C@@H]5CC[C@]43C)[C@@H]12" in this test? inactive

# fetch the recorded call for "CCOC(=O)c1c(C)nc2c(c1N)/C(=C/c1cccs1)C(=O)N2Cc1ccccc1" here active

Which result was noted for this compound in the test: "COc1ccc2nc(-c3ccc(OC)c(OC)c3)cc(-c3nnc(SCC(=O)Nc4ccc(/C(C)=N\O)cc4)n3-c3ccccc3)c2c1" inactive

// outcome(item) with item = "COC(=O)c1oc2c(C(=O)/C=C/c3ccc(OC)cc3)c(OCCCN3CCCCC3)ccc2c1C" active

Can you look up the reported call for "Sc1cccc2cccnc12" for me? active

Give the logged outcome of this assay for the following compound: O=C(Nc1ccc(S(=O)(=O)NC2CCCCCC2)cc1)C(c1ccccc1)S(=O)(=O)c1ccc(F)cc1 (centres undefined) active

Entry "COc1ccccc1-c1ccc2nc(NC(=O)Nc3cc(C(F)(F)F)cc(C(F)(F)F)c3)sc2c1" : call = ? active

Write down the call the test reported for this compound. Item: "C=C1C(=O)O[C@H]2[C@H]1CC/C(C=Nc1c(N)cc(F)cc1Br)=C\CC[C@@]1(C)O[C@@H]21" inactive

// return assay outcome for O=CN1N=C(c2ccc(F)cc2)CC1c1cccc(Nc2ccnc3cc(C(F)(F)F)ccc23)c1 (centres undefined) inactive

# fetch the recorded call for COc1ccc2c(c1)C1(C(=O)N2)C(C#N)=C(c2ccccc2)Nc2c1c(-c1ccccc1)nn2-c1ccccc1 (centres undefined) here inactive

For "C[C@H]1[C@H](C)CC[C@]2(C(=O)OCCOCCOCC[P+](c3ccccc3)(c3ccccc3)c3ccccc3)CC[C@]3(C)C(=CC[C@@H]4[C@@]5(C)CC[C@H](OC(=O)C(Cl)Cl)C(C)(C)[C@@H]5CC[C@]43C)[C@H]12" , what call appears in the results of this test? active

Per the assay record, what outcome was assigned to "CCCn1c(N)c(C(N)=O)sc1=S" ? inactive

Hi, do you know how COc1c(O)cc2oc3cc(O[C@@H]4OC(C)[C@@H](O)[C@H](O)C4O)c(CC=C(C)C)c(O)c3c(=O)c2c1CC=C(C)C (some centres undefined) came out in this test? inactive

Name the outcome recorded for COc1cc(C2=NN(C(C)=O)C(c3cccc(Nc4ccnc5cc(C(F)(F)F)ccc45)c3)C2)cc(OC)c1OC (centres undefined) in the assay. inactive

Fill in: this test's call for "CN1CCN(CC#CCOC(=O)CNC(=O)[C@]23CCC(C)(C)C[C@H]2C2=CC[C@@H]4[C@@]5(C)CC[C@H](O)C(C)(C)[C@@H]5CC[C@@]4(C)[C@]2(C)CC3)CC1" is ___ active

Recorded test outcome, item "Cc1cccc(C)c1NCc1nnc(-c2ccco2)o1" inactive

Any idea what this test logged for "CCC[S@@](=O)c1ccc2nc(NC(=O)OC)[nH]c2c1" ? inactive

Per the assay record, what outcome was assigned to "C=C1C(=O)O[C@H]2[C@H]1CC/C(C=Nc1c(N)cc(C(F)(F)F)cc1Br)=C\CC[C@@]1(C)O[C@@H]21" ? active

Called result for "Cc1cccc(C)c1Nc1nnc(-c2ccc(F)cc2)o1" inactive

Which result was noted for this compound in the test: "C=C1C(=O)O[C@H]2[C@H]1CC/C(COC(=O)CCCCC(=O)OC/C1=C/CC[C@@]3(C)O[C@H]3[C@H]3OC(=O)C(=C)[C@@H]3CC1)=C\CC[C@@]1(C)O[C@@H]21" active

GET /call?item= "O=C(Nc1cc(Br)ccn1)c1cc2cc(Nc3nc(-c4ccccc4)nc4ccccc34)ccc2oc1=O" returns the recorded outcome of this test. inactive

Would you mind telling me which call this test gave "COc1cccc2c1-c1ccccc1C2=O" ? inactive

Look up the recorded call for "Cc1cc(C)nc(NS(=O)(=O)c2ccc(Nc3ccc4c5c(n(CCCN(C)C)c(=O)c4c3)-c3ccccc3C5=O)cc2)n1" in this test. inactive

----------
- System: KM12 colon
- protocol.description: NCI-60 one-dose screen, 48 h
- measurement.setup: 10 µM unless noted
About 83,000 compounds went through this panel and 20% of them were active in at least one assay; those are over-represented in the sample as a whole. Active and inactive are the calls of the source. Rule for the calls: active = growth percent below 10; inactive = the rest.
// one of active, inactive, no free text

Lab log entry: CC(=O)ON1CCCC(P(=O)(OCOC(=O)C(C)(C)C)OCOC(=O)C(C)(C)C)C1=O (stereo not drawn) — outcome as called in the assay? active

Please share the test call associated with "CC1(C)CC[C@]2(c3nnc(-c4ccncc4)o3)CC[C@]3(C)C(=CC[C@@H]4[C@@]5(C)CCC(=O)C(C)(C)[C@@H]5CC[C@]43C)[C@@H]2C1" . inactive

How was "C=C(C)[C@@H]1CC[C@]2(C(=O)N=C=S)CC[C@]3(C)[C@H](CC[C@@H]4[C@@]5(C)CCC(=O)C(C)(C)[C@@H]5CC[C@]43C)[C@@H]12" classified in this test? inactive

Fill in: this test's call for "COc1cc(/C=C/C(=O)/C=C/c2cc3ccc(Cl)cc3n(Cc3ccccc3)c2=O)ccc1O" is ___ active

What call does the record list for "COC(=O)c1nc(-c2ccccc2)oc1S(=O)(=O)n1nc(-c2ccccc2)cc1N" ? inactive

What did this assay record as the result for "CCn1cc(C(=O)O)c(=O)c2cc(F)c(N3CCN(CC(=O)Nc4ccc(/C(C)=N/OC)cc4)CC3)cc21" ? inactive

Tell me the assay call for "C=C1C(=O)O[C@H]2[C@H]1CC/C(COC(=O)Nc1nc3ccccc3[nH]1)=C\CC[C@@]1(C)O[C@@H]21" please. inactive

Hi, do you know how "C#C[C@@]1(O)[C@@H](CO)O[C@@H](n2cc(Br)c3c(N)ncnc32)[C@@H]1O" came out in this test? active

Taken from PubChem BioAssay (NCI).
